- ASSAYED SYSTEM: T1, serum purified human Complement Factor D (human, UniProt P00746 26-253)
- T1 construct: Serum purified protein flowed over the captured antibodies; also called CFD; human CFD
- T1 sequence (P00746 26-253): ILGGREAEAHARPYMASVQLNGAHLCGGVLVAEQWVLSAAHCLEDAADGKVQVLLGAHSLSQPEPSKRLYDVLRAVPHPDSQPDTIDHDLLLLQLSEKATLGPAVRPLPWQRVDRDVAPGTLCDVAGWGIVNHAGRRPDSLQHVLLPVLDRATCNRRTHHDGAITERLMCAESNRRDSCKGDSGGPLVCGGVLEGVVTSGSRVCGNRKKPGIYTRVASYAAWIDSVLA
- PROTOCOL SUMMARY: SPR Biacore, antibody on protein A chip, single cycle kinetics, 25 C;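 also: antibodies captured to roughly 70 RU on the protein A surface in HBS-EP+ running buffer, with kinetic constants derived by BIAevaluation fitting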

BINDER	Kd, pM
54V59D / 32D50I101V (antibody, V domains shown, KCD119 TAF variant; full antibody captured on protein A) VH: EVQLVESGGGLVQPGGSLRLSCAASGYTFTDYYMNWVRQAPGKGLEWIGDINPVTGDTDYNADFKRRFTFSLDTSKSTAYLQMNSLRAEDTAVYYCTREGPSFAYWGQGTLVTVSS VL: DIQLTQSPSSLSASVGDRVTITCRSSQTIVHDNGDTYLEWYQQKPGKAPILLIYKVSNRFSGVPSRFSGSGSGTDFTLTISSLQPEDFATYYCFQGSHVPVTFGQGTKVEIK	19.7
31S54I59D / 54G101V (antibody, V domains shown, KCD119 TAF variant; full antibody captured on protein A) VH: EVQLVESGGGLVQPGGSLRLSCAASGYTFTSYYMNWVRQAPGKGLEWIGDINPITGDTDYNADFKRRFTFSLDTSKSTAYLQMNSLRAEDTAVYYCTREGPSFAYWGQGTLVTVSS VL: DIQLTQSPSSLSASVGDRVTITCRSSQTIVHSNGDTYLEWYQQKPGKAPNLLIGKVSNRFSGVPSRFSGSGSGTDFTLTISSLQPEDFATYYCFQGSHVPVTFGQGTKVEIK	6.89
54V59D / 32W60W101V (antibody, V domains shown, KCD119 TAF variant; full antibody captured on protein A) VH: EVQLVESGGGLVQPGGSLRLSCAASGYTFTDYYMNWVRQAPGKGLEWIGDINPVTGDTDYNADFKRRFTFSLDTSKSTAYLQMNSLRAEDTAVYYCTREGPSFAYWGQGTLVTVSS VL: DIQLTQSPSSLSASVGDRVTITCRSSQTIVHWNGDTYLEWYQQKPGKAPNLLIYKVSNRWSGVPSRFSGSGSGTDFTLTISSLQPEDFATYYCFQGSHVPVTFGQGTKVEIK	6.07
54I59D / 32W54S101V (antibody, V domains shown, Light label printed 32W545101V, read as 32W54S101V; also called 54I59D / 32W545101V) VH: EVQLVESGGGLVQPGGSLRLSCAASGYTFTDYYMNWVRQAPGKGLEWIGDINPITGDTDYNADFKRRFTFSLDTSKSTAYLQMNSLRAEDTAVYYCTREGPSFAYWGQGTLVTVSS VL: DIQLTQSPSSLSASVGDRVTITCRSSQTIVHWNGDTYLEWYQQKPGKAPNLLISKVSNRFSGVPSRFSGSGSGTDFTLTISSLQPEDFATYYCFQGSHVPVTFGQGTKVEIK	9.48
